# system_name: bovine cardiac myosin (Bos taurus, UniProt Q9BE39)
# Construct: The source of cardiac myosin was from bovine heart in the form of skinned myofibrils; from tissue; host or cells: bovine heart, skinned myofibrils
# Sequence (Q9BE39 whole entry): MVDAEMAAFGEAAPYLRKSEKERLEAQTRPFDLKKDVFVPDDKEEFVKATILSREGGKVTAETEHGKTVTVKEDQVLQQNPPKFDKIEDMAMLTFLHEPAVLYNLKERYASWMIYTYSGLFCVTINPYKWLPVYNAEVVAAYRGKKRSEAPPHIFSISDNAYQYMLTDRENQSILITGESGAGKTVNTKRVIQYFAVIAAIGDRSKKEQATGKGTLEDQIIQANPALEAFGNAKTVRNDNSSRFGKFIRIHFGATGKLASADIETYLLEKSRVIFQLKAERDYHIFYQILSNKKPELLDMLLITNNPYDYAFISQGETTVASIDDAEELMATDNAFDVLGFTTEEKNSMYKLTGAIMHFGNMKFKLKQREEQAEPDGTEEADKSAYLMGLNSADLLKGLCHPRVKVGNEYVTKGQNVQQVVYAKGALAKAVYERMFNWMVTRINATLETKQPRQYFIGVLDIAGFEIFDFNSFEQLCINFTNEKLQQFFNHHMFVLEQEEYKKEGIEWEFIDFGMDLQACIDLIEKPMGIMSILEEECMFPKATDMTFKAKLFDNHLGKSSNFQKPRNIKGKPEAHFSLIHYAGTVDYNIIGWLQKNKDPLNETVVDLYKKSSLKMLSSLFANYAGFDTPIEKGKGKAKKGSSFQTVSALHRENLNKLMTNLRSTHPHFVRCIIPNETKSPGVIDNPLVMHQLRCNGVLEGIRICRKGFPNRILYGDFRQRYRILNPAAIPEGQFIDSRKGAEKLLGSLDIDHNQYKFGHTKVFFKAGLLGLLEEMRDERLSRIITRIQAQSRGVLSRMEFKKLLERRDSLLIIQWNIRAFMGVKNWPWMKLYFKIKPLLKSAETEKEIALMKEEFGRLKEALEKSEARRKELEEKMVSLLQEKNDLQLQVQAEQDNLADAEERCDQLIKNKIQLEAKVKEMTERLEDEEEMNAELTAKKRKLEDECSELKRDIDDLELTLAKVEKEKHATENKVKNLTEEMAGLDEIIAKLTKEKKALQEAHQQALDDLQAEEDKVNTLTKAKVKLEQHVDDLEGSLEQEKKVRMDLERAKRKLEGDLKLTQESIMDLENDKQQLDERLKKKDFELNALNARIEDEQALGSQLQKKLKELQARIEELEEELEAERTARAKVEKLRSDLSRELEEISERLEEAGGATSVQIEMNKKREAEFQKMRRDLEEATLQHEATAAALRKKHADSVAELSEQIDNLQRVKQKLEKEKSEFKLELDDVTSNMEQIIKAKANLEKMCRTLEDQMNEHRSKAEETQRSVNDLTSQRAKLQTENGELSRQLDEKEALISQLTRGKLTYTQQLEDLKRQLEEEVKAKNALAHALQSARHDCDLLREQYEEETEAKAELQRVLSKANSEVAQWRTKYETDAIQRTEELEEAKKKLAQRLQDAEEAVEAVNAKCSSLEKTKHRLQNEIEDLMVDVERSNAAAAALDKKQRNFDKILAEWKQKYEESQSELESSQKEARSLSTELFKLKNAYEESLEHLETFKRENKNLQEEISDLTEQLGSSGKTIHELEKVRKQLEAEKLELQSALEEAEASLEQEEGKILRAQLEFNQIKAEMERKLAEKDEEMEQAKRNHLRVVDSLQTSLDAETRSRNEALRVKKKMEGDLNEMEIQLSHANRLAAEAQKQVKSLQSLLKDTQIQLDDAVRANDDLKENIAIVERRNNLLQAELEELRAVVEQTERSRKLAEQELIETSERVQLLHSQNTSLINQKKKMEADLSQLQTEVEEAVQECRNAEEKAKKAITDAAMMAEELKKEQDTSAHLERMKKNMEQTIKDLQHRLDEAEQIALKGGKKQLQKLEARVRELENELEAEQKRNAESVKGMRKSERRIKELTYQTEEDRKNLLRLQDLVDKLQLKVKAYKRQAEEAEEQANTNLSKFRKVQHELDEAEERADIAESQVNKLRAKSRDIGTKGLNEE
# Sequence (P85100 whole entry partner): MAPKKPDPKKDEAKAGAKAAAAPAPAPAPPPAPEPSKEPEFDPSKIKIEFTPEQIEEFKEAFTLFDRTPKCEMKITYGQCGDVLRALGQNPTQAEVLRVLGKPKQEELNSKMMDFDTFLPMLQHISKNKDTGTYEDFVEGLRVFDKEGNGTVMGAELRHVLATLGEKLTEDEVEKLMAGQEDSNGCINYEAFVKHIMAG
# Sequence (Q3SZE5 whole entry partner): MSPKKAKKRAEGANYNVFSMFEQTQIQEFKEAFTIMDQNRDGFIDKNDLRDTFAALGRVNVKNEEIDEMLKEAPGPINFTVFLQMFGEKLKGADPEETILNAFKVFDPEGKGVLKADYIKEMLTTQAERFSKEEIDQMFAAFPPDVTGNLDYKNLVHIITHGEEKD
# run_description: Myosin inhibition assay (PK/LDH-coupled ATPase, bovine cardiac myofibrils)
# Assay type: biochemical
# run_conditions: bovine cardiac myofibrils, calcium giving 50% activation (pCa50); read-out: Biochemical Activity (pCa50)
property_measured: IC50

1. COc1ccc([C@H](C)Nc2cc(=O)n(C(C)C)c(=O)[nH]2)cc1 [Compound 121] | < 1000 nM
2. C[C@H](Nc1cc(=O)n([C@@H](C)CO)c(=O)[nH]1)c1ccccc1 [Compound 92] | 1000 to 15000 nM
3. Cc1cccc(-n2c(=O)cc(N[C@@H](C)c3ccccc3)[nH]c2=O)n1 [Compound 65] | 1000 to 15000 nM
4. CCn1c(=O)cc(N[C@H](c2ccccc2)C2CC2)[nH]c1=O [Compound 122] | 1000 to 15000 nM
5. CCn1c(=O)cc(N[C@@H](C)c2cccc(Cl)c2)[nH]c1=O [Compound 123] | < 1000 nM
6. CCn1c(=O)cc(N[C@@H](C)c2ccc(F)c(F)c2)[nH]c1=O [Compound 134] | < 1000 nM
7. CC(C)n1c(=O)cc(N[C@@H](C)c2ccc3c(c2)OCO3)[nH]c1=O [Compound 107] | < 1000 nM
8. CC(C)n1c(=O)cc(N[C@@H](COCc2ccccc2)c2ccccc2)[nH]c1=O [Compound 64] | 1000 to 15000 nM
9. CC[C@H](Nc1cc(=O)n(CC)c(=O)[nH]1)c1ccccc1 [Compound 36] | 1000 to 15000 nM
10. C[C@H](Nc1cc(=O)n(-c2cc(F)cc(F)c2)c(=O)[nH]1)c1ccccc1 [Compound 49] | < 1000 nM
11. CC[C@H](Nc1cc(=O)n(CC(F)(F)F)c(=O)[nH]1)c1ccccc1 [Compound 109] | 1000 to 15000 nM
12. C[C@H](Nc1cc(=O)n(C2CCC2)c(=O)[nH]1)c1ccc(F)cc1 [Compound 132] | < 1000 nM
13. C[C@H](Nc1cc(=O)n(C2(C)CC2)c(=O)[nH]1)c1ccccc1 [Compound 71] | < 1000 nM
14. C[C@H](Nc1cc(=O)n(CC2CC2)c(=O)[nH]1)c1ccccc1 [Compound 110] | 1000 to 15000 nM
15. CC(C)n1c(=O)cc(N[C@@H](C)c2cccc(F)c2)[nH]c1=O [Compound 27] | < 1000 nM
16. CC(C)n1c(=O)cc(N[C@@H](C)c2ccc(OCc3ccccc3)cc2)[nH]c1=O [Compound 62] | < 1000 nM
17. C[C@H](Nc1cc(=O)n([C@@H](C)C(F)(F)F)c(=O)[nH]1)c1ccccc1 [Compound 95] | < 1000 nM
18. C[C@H](Nc1cc(=O)n(C(CO)CO)c(=O)[nH]1)c1ccccc1 [Compound 113] | 1000 to 15000 nM

----------
# system_name: bovine cardiac myosin (Bos taurus)
# Construct: The source of cardiac myosin was from bovine heart in the form of skinned myofibrils; from tissue; host or cells: bovine heart, skinned myofibrils
# run_description: Myosin inhibition assay (PK/LDH-coupled ATPase, bovine cardiac myofibrils)
# Assay type: biochemical
# run_conditions: bovine cardiac myofibrils, calcium giving 50% activation (pCa50); read-out: Biochemical Activity (pCa50)
property_measured: IC50

1. C[C@H](Nc1cc(=O)n([C@@H](C)C2CC2)c(=O)[nH]1)c1ccccc1 [Compound 105] | < 1 µM
2. C[C@H](Nc1cc(=O)n(CC(F)F)c(=O)[nH]1)c1ccccc1 [Compound 66] | 1 to 15 µM
3. CC(C)n1c(=O)cc(N[C@@H](C)c2cccc(Br)c2)[nH]c1=O [Compound 35] | < 1 µM
4. CCCn1c(=O)cc(N[C@@H](C)c2ccc(F)cc2)[nH]c1=O [Compound 136] | < 1 µM
5. C[C@@H](Cc1ccc(F)cc1)Nc1cc(=O)n(-c2cc(F)cc(F)c2)c(=O)[nH]1 [Compound 118] | < 1 µM
6. C[C@H](Nc1cc(=O)n(-c2ccccc2)c(=O)[nH]1)c1ccccc1 [Compound 45] | < 1 µM
7. C[C@H](Nc1cc(=O)n(Cc2ccccc2)c(=O)[nH]1)c1ccccc1 [Compound 57] | 1 to 15 µM
8. C[C@H](Nc1cc(=O)n([C@H](C)C2CC2)c(=O)[nH]1)c1ccccc1 [Compound 104] | < 1 µM
